# viability, T/C values compiled below
- Tested on: 953936-095-R-J2-PDC spheroids with HUVEC/MSC, viability
- EXPERIMENT: Anticancer human tumor 953936-095-R-J2-PDC patient-derived cervical squamous cell carcinoma cell line growth inhibition [PI3K]
- TEST_CONDITIONS: second compound 0.00316 µM; first compound 0.1 µM; stronger effect = lower value
- Text: Combinatorial screen of targeted agents with the PI3K inhibitors inavolisib, alpelisib, duvelisib, and copanlisib in multi-cell type tumor spheroids A high-throughput screen of multi-cell type tumor spheroids was designed to identify active combinations of targeted small molecules and PI3K pathway inhibitors. […] Compounds. […] If the clinical Cmax for an agent had not been determined, the highest concentration tested was 10 microM. […]

COMPOUND	viability, T/C
CC1(C)CCC(CN2CCN(c3ccc(C(=O)NS(=O)(=O)c4ccc(NCC5CCOCC5)c([N+](=O)[O-])c4)c(Oc4cnc5[nH]ccc5c4)c3)CC2)=C(c2ccc(Cl)cc2)C1 + CC(Nc1ccc2c(c1)OCCn1cc(N3C(=O)OCC3C(F)F)nc1-2)C(N)=O	89.8%
CCN1CCN(Cc2ccc(Nc3ncc(F)c(-c4cc(F)c5nc(C)n(C(C)C)c5c4)n3)nc2)CC1 + COc1c(OCCCN2CCOCC2)ccc2c3n(c(=NC(=O)c4cnc(N)nc4)nc12)CCN3	91.7%

The value of viability, T/C measured for the compound CC(Cn1ccc(-c2ccc(C#N)c(Cl)c2)n1)NC(=O)c1cc(C(C)O)[nH]n1 (stereo not drawn) + COc1c(OCCCN2CCOCC2)ccc2c3n(c(=NC(=O)c4cnc(N)nc4)nc12)CCN3 turned out to be 88.3%

====

- System: 953936-095-R-J2-PDC spheroids with HUVEC/MSC, viability
- EXPERIMENT: Anticancer human tumor 953936-095-R-J2-PDC cell line growth inhibition [PI3K];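 further: spheroids exposed to compounds for seven days before read-out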
- TEST_CONDITIONS: compound 0.00316 µM; stronger effect = lower value
VALUE_KIND: viability, T/C

Solved entries:
> print(dat)
                                   molecule      value.kind           endpoint.result
1  CC(Nc1ccc2c(c1)OCCn1cc(N3C(=O)OCC3C(F)F)nc1-2)C(N)=O (stereo not given)  viability, T/C   104% [middle of 8 runs]
2  Cn1ncnc1[C@H]1c2n[nH]c(=O)c3cc(F)cc(c23)N[C@@H]1c1ccc(F)cc1  viability, T/C   103% [middle of 4 runs]
3  CCN1CCN(Cc2ccc(Nc3ncc(F)c(-c4cc(F)c5nc(C)n(C(C)C)c5c4)n3)nc2)CC1  viability, T/C  98.4% [middle of 4 runs]

The value of viability, T/C measured for the molecule CC(C)n1nc(-c2ccc3oc(N)nc3c2)c2c(N)ncnc21 turned out to be 88.9% [middle of 4 runs]

The value of viability, T/C measured for the molecule CC(=O)c1c(C)c2cnc(Nc3ccc(N4CCNCC4)cn3)nc2n(C2CCCC2)c1=O turned out to be 103% [middle of 4 runs]

====

- System: 953936-095-R-J2-PDC spheroids with HUVEC/MSC, viability
- EXPERIMENT: Anticancer human tumor 953936-095-R-J2-PDC cell line growth inhibition [PI3K];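 further: spheroids exposed to compounds for seven days before read-out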
- TEST_CONDITIONS: second compound 0.1 µM; first compound 0.0316 µM; stronger effect = lower value
Lab note: anything with viability, T/C below 80% is marked Condition met; values at 80% or higher are marked Condition not met.

Take a look at these entries with their results.
COMPOUND	TARGET	LABEL_CLASS
Cn1ncnc1[C@H]1c2n[nH]c(=O)c3cc(F)cc(c23)N[C@@H]1c1ccc(F)cc1 + CC(Nc1ccc2c(c1)OCCn1cc(N3C(=O)OCC3C(F)F)nc1-2)C(N)=O	953936-095-R-J2-PDC spheroids with HUVEC/MSC, viability	Condition met
Cn1ncc(Cl)c1-c1cc(C(=O)NC(CN)Cc2cccc(F)c2)sc1Cl (configuration not stated) + CC(Nc1ncnc2nc[nH]c12)c1cc2cccc(Cl)c2c(=O)n1-c1ccccc1	953936-095-R-J2-PDC spheroids with HUVEC/MSC, viability	Condition not met
CCN1CCN(Cc2ccc(Nc3ncc(F)c(-c4cc(F)c5nc(C)n(C(C)C)c5c4)n3)nc2)CC1 + Cc1nc(NC(=O)N2CCCC2C(N)=O)sc1-c1ccnc(C(C)(C)C(F)(F)F)c1	953936-095-R-J2-PDC spheroids with HUVEC/MSC, viability	Condition not met

Prompt line: Is viability, T/C of Cn1ncnc1[C@H]1c2n[nH]c(=O)c3cc(F)cc(c23)N[C@@H]1c1ccc(F)cc1 + CC(Nc1ncnc2nc[nH]c12)c1cc2cccc(Cl)c2c(=O)n1-c1ccccc1 strictly below 80%?
Response line: Condition not met

Prompt line: Is viability, T/C of CC(C)NCC(C(=O)N1CCN(c2ncnc3c2C(C)CC3O)CC1)c1ccc(Cl)cc1 (configuration not stated) + Cc1nc(NC(=O)N2CCCC2C(N)=O)sc1-c1ccnc(C(C)(C)C(F)(F)F)c1 strictly below 80%?
Response line: Condition not met

Prompt line: Is viability, T/C of CC1(C)CCC(CN2CCN(c3ccc(C(=O)NS(=O)(=O)c4ccc(NCC5CCOCC5)c([N+](=O)[O-])c4)c(Oc4cnc5[nH]ccc5c4)c3)CC2)=C(c2ccc(Cl)cc2)C1 + CC(Nc1ncnc2nc[nH]c12)c1cc2cccc(Cl)c2c(=O)n1-c1ccccc1 strictly below 80%?
Response line: Condition not met

Prompt line: Is viability, T/C of C[C@@H](NC(=O)c1ncnc(N)c1Cl)c1ncc(C(=O)Nc2cc(C(F)(F)F)c(Cl)cn2)s1 + Cc1nc(NC(=O)N2CCCC2C(N)=O)sc1-c1ccnc(C(C)(C)C(F)(F)F)c1 strictly below 80%?
Response line: Condition not met

Prompt line: Is viability, T/C of C#Cc1c(F)ccc2cc(O)cc(-c3ncc4c(N5CC6CCC(C5)N6)nc(OCC56CCCN5CC(F)C6)nc4c3F)c12 (configuration not stated) + CC(Nc1ccc2c(c1)OCCn1cc(N3C(=O)OCC3C(F)F)nc1-2)C(N)=O strictly below 80%?
Response line: Condition met

Prompt line: Is viability, T/C of CC(=O)c1c(C)c2cnc(Nc3ccc(N4CCNCC4)cn3)nc2n(C2CCCC2)c1=O + Cc1nc(NC(=O)N2CCCC2C(N)=O)sc1-c1ccnc(C(C)(C)C(F)(F)F)c1 strictly below 80%?
Response line: Condition not met

====

# viability, T/C values compiled below
- Test system: 953936-095-R-J2-PDC spheroids with HUVEC/MSC, viability
- EXPERIMENT: Anticancer human tumor 953936-095-R-J2-PDC cell line growth inhibition [PI3K];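 further: spheroids exposed to compounds for seven days before read-out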
- TEST_CONDITIONS: second compound 0.1 µM; first compound 10 µM; stronger effect = lower value

MOLECULE	viability, T/C
CC(C)NCC(C(=O)N1CCN(c2ncnc3c2C(C)CC3O)CC1)c1ccc(Cl)cc1 (stereo not drawn) + CC(Nc1ccc2c(c1)OCCn1cc(N3C(=O)OCC3C(F)F)nc1-2)C(N)=O	9.8%
CC(Cn1ccc(-c2ccc(C#N)c(Cl)c2)n1)NC(=O)c1cc(C(C)O)[nH]n1 (stereo not drawn) + CC(Nc1ncnc2nc[nH]c12)c1cc2cccc(Cl)c2c(=O)n1-c1ccccc1	93.5%

Kindly consider the entry below.
The value of viability, T/C measured for the molecule C#Cc1c(F)ccc2cc(O)cc(-c3ncc4c(N5CC6CCC(C5)N6)nc(OCC56CCCN5CC(F)C6)nc4c3F)c12 (stereo not drawn) + COc1c(OCCCN2CCOCC2)ccc2c3n(c(=NC(=O)c4cnc(N)nc4)nc12)CCN3 turned out to be 6.07%

====

- Test system: 953936-095-R-J2-PDC spheroids with HUVEC/MSC, viability
- EXPERIMENT: Anticancer human tumor 953936-095-R-J2-PDC cell line growth inhibition [PI3K];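 further: spheroids exposed to compounds for seven days before read-out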
- TEST_CONDITIONS: second compound 0.1 µM; first compound 0.0316 µM; stronger effect = lower value
# viability, T/C values compiled below
Form entry: value (%) — number only.

Solved entries:
COMPOUND	TARGET	UNIT_LABEL	viability, T/C
CC1(C)CCC(Nc2ncc(C(F)(F)F)c(-c3c[nH]c4c(P(C)(C)=O)c(C#N)ccc34)n2)CN1 (stereo not drawn) + CC(Nc1ccc2c(c1)OCCn1cc(N3C(=O)OCC3C(F)F)nc1-2)C(N)=O	953936-095-R-J2-PDC spheroids with HUVEC/MSC, viability	%	38.5
CC(Cn1ccc(-c2ccc(C#N)c(Cl)c2)n1)NC(=O)c1cc(C(C)O)[nH]n1 (stereo not drawn) + CC(Nc1ncnc2nc[nH]c12)c1cc2cccc(Cl)c2c(=O)n1-c1ccccc1	953936-095-R-J2-PDC spheroids with HUVEC/MSC, viability	%	98.4

Kindly consider the entry below.
The value of viability, T/C measured for the compound C#Cc1c(F)ccc2cc(O)cc(-c3ncc4c(N5CC6CCC(C5)N6)nc(OCC56CCCN5CC(F)C6)nc4c3F)c12 (stereo not drawn) + Cc1nc(NC(=O)N2CCCC2C(N)=O)sc1-c1ccnc(C(C)(C)C(F)(F)F)c1 turned out to be 79.7
